Provenance of the data: patent US7348412B1

Test system: 26-10 mAb
Set-up: species or system A/J mice
Conditions: free analogue 0.00035-200 μM inhibiting binding of mAb 26-10 to Oua-BGG
metric-name: IC50 (µM)
Expressed in µM, but write only the number.

-- ask Look up IC50: CC(=O)O[C@H]1CC[C@@]2(C)[C@H](CC[C@@H]3[C@@H]2C[C@@H](OC(C)=O)[C@]2(C)[C@@H](C4=CC(=O)OC4)CC[C@]32O)C1 [Digoxigenin-3,12-diacetate]
-- reply 6

-- ask Name the recorded IC50 for "C[C@]12CC[C@H](O)C[C@H]1CC[C@@H]1[C@@H]2CC[C@]2(C)[C@@H](C3=CC(=O)OC3)CC[C@]12O" .
-- reply 0.04

-- ask What measured IC50 goes with C[C@H]1O[C@@H](O[C@H]2CC[C@]3(C=O)[C@H]4CC[C@]5(C)[C@@H](C6=CC(=O)OC6)CC[C@]5(O)[C@@H]4CC[C@]3(O)C2)C[C@H](O)[C@@H]1O [Helveticoside] ?
-- reply 0.2

---

System: 26-10 mAb
Design: species or system A/J mice
Settings: free analogue 0.00035-200 μM inhibiting binding of mAb 26-10 to Oua-BGG
metric-name: log10 IC50 (log10 of the value in µM)
Hello, just confirming the data are log10 of IC50 with units of µM.

-- ask Could you share what log10 IC50 was measured for "C[C@]12CCC(=O)C=C1CC[C@@H]1[C@@H]2C(=O)C[C@@]2(C)[C@H]1CC[C@]2(O)C(=O)CO" , tested on 26-10 mAb?
-- reply 2.00

-- ask Please tell me: log10 IC50 of "C[C@H]1O[C@@H](O[C@H]2[C@@H](O)C[C@H](O[C@H]3[C@@H](O)C[C@H](O[C@H]4CC[C@@]5(C)[C@H](CC[C@@H]6[C@@H]5CC[C@]5(C)[C@@H](C7=CC(=O)OC7)CC[C@]65O)C4)O[C@@H]3C)O[C@@H]2C)C[C@H](O)[C@@H]1O" , system 26-10 mAb?
-- reply -1.70

-- ask Query log10 IC50 on 26-10 mAb for "C[C@]12C[C@@H](O)[C@H]3[C@@H](CC[C@]4(O)C[C@@H](O)C[C@@H](O)[C@]34CO)[C@@]1(O)CC[C@@H]2C1=CC(=O)OC1"
-- reply -0.40

-- ask Provide the documented log10 IC50 with 26-10 mAb as the system for "C[C@H]1O[C@@H](O[C@H]2[C@@H](O)C[C@H](O[C@H]3[C@@H](O)C[C@H](O[C@H]4CC[C@@]5(C)[C@H](CC[C@@H]6[C@@H]5C[C@@H](O)[C@]5(C)[C@@H](C7=CC(=O)OC7)CC[C@]65O)C4)O[C@@H]3C)O[C@@H]2C)C[C@H](O)[C@@H]1O"
-- reply -2.22

-- ask # value lookup — system 26-10 mAb, readout log10 IC50, item "CC(=O)O[C@H]1CC[C@]2(C=O)[C@H]3CC[C@]4(C)[C@@H](C5=CC(=O)OC5)CC[C@]4(O)[C@@H]3CC[C@]2(O)C1"
-- reply -0.70

---

System: 26-10 mAb
Set-up: species or system A/J mice
Conditions: free analogue 0.00035-200 μM inhibiting binding of mAb 26-10 to Oua-BGG
metric-name: IC50 (µM)
Please state the figure in µM; there is no need to write the unit.

-- ask Need IC50, item C[C@H]1O[C@@H](O[C@H]2[C@@H](O)C[C@H](O[C@H]3[C@@H](O)C[C@H](O[C@H]4CC[C@@]5(C)[C@H](CC[C@@H]6[C@@H]5CC[C@]5(C)[C@@H](C7=CC(=O)OC7)[C@@H](O)C[C@]65O)C4)O[C@@H]3C)O[C@@H]2C)C[C@H](O)[C@@H]1O [Gitoxin]
-- reply 1.5

-- ask So what's the measured IC50 for this one? C[C@@H]1O[C@@H](O[C@H]2CC[C@]3(C=O)[C@H]4CC[C@]5(C)[C@@H](C6=CC(=O)OC6)CC[C@]5(O)[C@@H]4CC[C@]3(O)C2)[C@H](O)[C@H](O)[C@H]1O [Convallatoxin]
-- reply 0.1

-- ask GET /values?readout=IC50&item= CO[C@@H]1[C@H](O)[C@@H](O[C@@H]2C[C@H]3CC[C@@H]4[C@H](CC[C@]5(C)[C@@H](C6=CC(=O)OC6)CC[C@]45O)[C@@]3(C)[C@H](O)C2)O[C@@H](C)[C@@H]1O [Acovenoside]
-- reply 0.2

---

System: 26-10 mAb
Design: species or system A/J mice
Settings: free analogue 0.00035-200 μM inhibiting binding of mAb 26-10 to Oua-BGG
metric-name: IC50 (µM)
The reply should contain only the number, in µM.

-- ask Reported IC50 for "C[C@@H]1O[C@@H](O[C@H]2C[C@@H](O)[C@]3(CO)[C@H]4[C@H](O)C[C@]5(C)[C@@H](C6=CC(=O)OC6)CC[C@]5(O)[C@@H]4CC[C@]3(O)C2)[C@H](O)[C@H](O)[C@H]1O" : what is it?
-- reply 0.37

-- ask Which value of IC50 has been reported for "CC(=O)O[C@H]1C[C@]2(O)[C@@H]3CC[C@@H]4C[C@@H](O[C@H]5C[C@H](O)[C@H](O[C@H]6C[C@H](O)[C@H](O[C@H]7C[C@H](O)[C@H](O)[C@@H](C)O7)[C@@H](C)O6)[C@@H](C)O5)CC[C@]4(C)[C@H]3CC[C@]2(C)[C@H]1C1=CC(=O)OC1" in the records?
-- reply 0.5

-- ask Which IC50 value belongs to "CC(=O)[C@H]1CC[C@H]2[C@@H]3CCC4=CC(=O)CC[C@]4(C)[C@H]3CC[C@]12C" ?
-- reply 2

-- ask Recorded IC50 for "C[C@]12CC[C@H]3[C@@H](CC[C@]4(O)C[C@@H](O)CC[C@]34C=O)[C@@]1(O)CC[C@@H]2C1=CC(=O)OC1" , please?
-- reply 0.2
